- assay.summary: in vivo
- applied.conditions: female, Sprague Dawley, rat, plasma, po, 10 mg/kg
readout.type: AUC (µM·h)

>>> reported("CC(=O)O[C@H]1C(=O)[C@@]2(C)[C@H]([C@H](OC(=O)c3ccccc3)[C@@]3(O)CC1=C(C)[C@@H](OC(=O)[C@H](O)[C@@H](NC(=O)c1ccccc1)c1ccccc1)C3)[C@]1(OC(C)=O)CO[C@@H]1C[C@@H]2O")
0.186
